# System: Mus musculus
# assayOverview: Skin uptake in C3H mice bearing RIF tumors, determined by in vivo reflectance spectroscopy following 5.0 umol/kg administration.
# Type: functional
Listed molecules paired with reported Skin uptake

molecule: CCCCCCOC(C)C1=C(C)c2cc3nc(c4c5[nH]c(cc6[nH]c(cc1n2)c(C)c6CC)c(C)c5C(=O)N(C)C4=O)[C@@H](CCC(=O)OC)[C@@H]3C (stereo partly drawn)
Skin uptake (µM): 1.78
//
molecule: CCCCCCCCCCN1C(=O)c2c3nc(cc4nc(cc5[nH]c(cc6[nH]c2c(c6C)C1=O)c(CC)c5C)C(C(C)OCCC)=C4C)[C@@H](C)[C@@H]3CCC(=O)OC (stereo partly drawn)
Skin uptake (µM): 6.09
//
molecule: CCCCCCCN1C(=O)c2c3nc(cc4nc(cc5[nH]c(cc6[nH]c2c(c6C)C1=O)c(CC)c5C)C(C(C)OCCCCCC)=C4C)[C@@H](C)[C@@H]3CCC(=O)OC (stereo partly drawn)
Skin uptake (µM): 2.95
//
molecule: CCCCCCOC(C)C1=C(C)c2cc3nc(c4c5[nH]c(cc6[nH]c(cc1n2)c(C)c6CC)c(C)c5C(=O)N(CCC)C4=O)[C@@H](CCC(=O)OC)[C@@H]3C (stereo partly drawn)
Skin uptake (µM): 1.48
//
molecule: CCCCCCCCCCCCN1C(=O)c2c3nc(cc4nc(cc5[nH]c(cc6[nH]c2c(c6C)C1=O)c(CC)c5C)C(C(C)OC)=C4C)[C@@H](C)[C@@H]3CCC(=O)OC (stereo partly drawn)
Skin uptake (µM): 5.8
//
molecule: CCCCCCCCCCOC(C)C1=C(C)c2cc3nc(c4c5[nH]c(cc6[nH]c(cc1n2)c(C)c6CC)c(C)c5C(=O)N(CCCCCCCCCC)C4=O)[C@@H](CCC(=O)OC)[C@@H]3C (stereo partly drawn)
Skin uptake (µM): 1.73
//
molecule: CCCCCCCCCCCCOC(C)C1=C(C)c2cc3nc(c4c5[nH]c(cc6[nH]c(cc1n2)c(C)c6CC)c(C)c5C(=O)N(C)C4=O)[C@@H](CCC(=O)OC)[C@@H]3C (stereo partly drawn)
Skin uptake (µM): 1.74
//
molecule: CCCCCCCCCCCCOC(C)C1=C(C)c2cc3nc(c4c5[nH]c(cc6[nH]c(cc1n2)c(C)c6CC)c(C)c5C(=O)N(CCCCCC)C4=O)[C@@H](CCC(=O)OC)[C@@H]3C (stereo partly drawn)
Skin uptake (µM): 4.3

* * *

Listed compounds paired with reported logP
# assayOverview: Partition coefficient (logP)
# Format: physicochemical
# conditionDetails: octanol/water; read-out: logP
quantity: logP

compound: CCCCCCOC(C)C1=C(C)c2cc3nc(c4c5[nH]c(cc6[nH]c(cc1n2)c(C)c6CC)c(C)c5C(=O)N(C)C4=O)[C@@H](CCC(=O)OC)[C@@H]3C (stereo partly drawn)
reportedResult: 7.67
--
compound: CCCCCCN1C(=O)c2c3nc(cc4nc(cc5[nH]c(cc6[nH]c2c(c6C)C1=O)c(CC)c5C)C(C(C)OC)=C4C)[C@@H](C)[C@@H]3CCC(=O)OC (stereo partly drawn)
reportedResult: 7.82
--
compound: CCc1c(C)c2cc3[nH]c(cc4nc(c5c6nc(cc1[nH]2)C(C)=C6C(=O)N(C)C5=O)[C@@H](CCC(=O)OC)[C@@H]4C)c(C)c3C(C)OC (stereo partly drawn)
reportedResult: 5.32

* * *

# System: Mus musculus
# assayOverview: Skin uptake in C3H mice bearing RIF tumors, determined by in vivo reflectance spectroscopy following 5.0 umol/kg administration.
# Type: functional
quantity: log10(Skin uptake) (log10 of the value in µM)

compound: CCCCCCCCCCOC(C)C1=C(C)c2cc3nc(c4c5[nH]c(cc6[nH]c(cc1n2)c(C)c6CC)c(C)c5C(=O)N(CCC)C4=O)[C@@H](CCC(=O)OC)[C@@H]3C (stereo partly specified)
log10(Skin uptake): 0.63

compound: CCCCCCCCCCN1C(=O)c2c3nc(cc4nc(cc5[nH]c(cc6[nH]c2c(c6C)C1=O)c(CC)c5C)C(C(C)OCCCCCC)=C4C)[C@@H](C)[C@@H]3CCC(=O)OC (stereo partly specified)
log10(Skin uptake): 0.26

compound: CCCCCCCCCCCCOC(C)C1=C(C)c2cc3nc(c4c5[nH]c(cc6[nH]c(cc1n2)c(C)c6CC)c(C)c5C(=O)N(CCCCCCCCCCCC)C4=O)[C@@H](CCC(=O)OC)[C@@H]3C (stereo partly specified)
log10(Skin uptake): 0.43

compound: CCCCCCN1C(=O)c2c3nc(cc4nc(cc5[nH]c(cc6[nH]c2c(c6C)C1=O)c(CC)c5C)C(C(C)OC)=C4C)[C@@H](C)[C@@H]3CCC(=O)OC (stereo partly specified)
log10(Skin uptake): 0.65

compound: CCCCCCN1C(=O)c2c3nc(cc4nc(cc5[nH]c(cc6[nH]c2c(c6C)C1=O)c(CC)c5C)C(C(C)OCCC)=C4C)[C@@H](C)[C@@H]3CCC(=O)OC (stereo partly specified)
log10(Skin uptake): 0.80

compound: CCCCCCOC(C)C1=C(C)c2cc3nc(c4c5[nH]c(cc6[nH]c(cc1n2)c(C)c6CC)c(C)c5C(=O)N(CCCCCC)C4=O)[C@@H](CCC(=O)OC)[C@@H]3C (stereo partly specified)
log10(Skin uptake): 0.36

compound: CCCCCCCCCCCCN1C(=O)c2c3nc(cc4nc(cc5[nH]c(cc6[nH]c2c(c6C)C1=O)c(CC)c5C)C(C(C)OCCCCCC)=C4C)[C@@H](C)[C@@H]3CCC(=O)OC (stereo partly specified)
log10(Skin uptake): 0.30

compound: CCCCCCCCCOC(C)C1=C(C)c2cc3nc(c4c5[nH]c(cc6[nH]c(cc1n2)c(C)c6CC)c(C)c5C(=O)N(CCCCCC)C4=O)[C@@H](CCC(=O)OC)[C@@H]3C (stereo partly specified)
log10(Skin uptake): 0.55

compound: CCCCCCCOC(C)C1=C(C)c2cc3nc(c4c5[nH]c(cc6[nH]c(cc1n2)c(C)c6CC)c(C)c5C(=O)N(CCCCCC)C4=O)[C@@H](CCC(=O)OC)[C@@H]3C (stereo partly specified)
log10(Skin uptake): 0.41

compound: CCc1c(C)c2cc3[nH]c(cc4nc(c5c6nc(cc1[nH]2)C(C)=C6C(=O)N(C)C5=O)[C@@H](CCC(=O)OC)[C@@H]4C)c(C)c3C(C)OC (stereo partly specified)
log10(Skin uptake): -1.00

compound: CCCOC(C)C1=C(C)c2cc3nc(c4c5[nH]c(cc6[nH]c(cc1n2)c(C)c6CC)c(C)c5C(=O)N(CCC)C4=O)[C@@H](CCC(=O)OC)[C@@H]3C (stereo partly specified)
log10(Skin uptake): 0.68

* * *

# assayOverview: Partition coefficient (logP)
# Type: physicochemical
# conditionDetails: octanol/water; read-out: logP

molecule: CCCOC(C)C1=C(C)c2cc3nc(c4c5[nH]c(cc6[nH]c(cc1n2)c(C)c6CC)c(C)c5C(=O)N(CCC)C4=O)[C@@H](CCC(=O)OC)[C@@H]3C (stereo partly drawn)
logP: 7.26

molecule: CCCCCCOC(C)C1=C(C)c2cc3nc(c4c5[nH]c(cc6[nH]c(cc1n2)c(C)c6CC)c(C)c5C(=O)N(CCC)C4=O)[C@@H](CCC(=O)OC)[C@@H]3C (stereo partly drawn)
logP: 8.79

molecule: CCCCCCN1C(=O)c2c3nc(cc4nc(cc5[nH]c(cc6[nH]c2c(c6C)C1=O)c(CC)c5C)C(C(C)OCCC)=C4C)[C@@H](C)[C@@H]3CCC(=O)OC (stereo partly drawn)
logP: 8.79

* * *

Listed compounds paired with reported logP
# assayOverview: Partition coefficient (logP)
# Format: physicochemical
# conditionDetails: octanol/water
quantity: logP

compound: CCCCCCCCCCOC(C)C1=C(C)c2cc3nc(c4c5[nH]c(cc6[nH]c(cc1n2)c(C)c6CC)c(C)c5C(=O)N(CCC)C4=O)[C@@H](CCC(=O)OC)[C@@H]3C (some centres not stated)
reportedResult: 10.68
//
compound: CCCCCCCCCOC(C)C1=C(C)c2cc3nc(c4c5[nH]c(cc6[nH]c(cc1n2)c(C)c6CC)c(C)c5C(=O)N(CCCCCC)C4=O)[C@@H](CCC(=O)OC)[C@@H]3C (some centres not stated)
reportedResult: 11.85
//
compound: CCCCCCCCCCCCN1C(=O)c2c3nc(cc4nc(cc5[nH]c(cc6[nH]c2c(c6C)C1=O)c(CC)c5C)C(C(C)OC)=C4C)[C@@H](C)[C@@H]3CCC(=O)OC (some centres not stated)
reportedResult: 10.88
//
compound: CCCCCCOC(C)C1=C(C)c2cc3nc(c4c5[nH]c(cc6[nH]c(cc1n2)c(C)c6CC)c(C)c5C(=O)N(CCCCCC)C4=O)[C@@H](CCC(=O)OC)[C@@H]3C (some centres not stated)
reportedResult: 10.32
//
compound: CCCCCCCN1C(=O)c2c3nc(cc4nc(cc5[nH]c(cc6[nH]c2c(c6C)C1=O)c(CC)c5C)C(C(C)OCCCCCC)=C4C)[C@@H](C)[C@@H]3CCC(=O)OC (some centres not stated)
reportedResult: 10.83
//
compound: CCCCCCCCCCCCOC(C)C1=C(C)c2cc3nc(c4c5[nH]c(cc6[nH]c(cc1n2)c(C)c6CC)c(C)c5C(=O)N(C)C4=O)[C@@H](CCC(=O)OC)[C@@H]3C (some centres not stated)
reportedResult: 10.73
//
compound: CCCCCCCCCCN1C(=O)c2c3nc(cc4nc(cc5[nH]c(cc6[nH]c2c(c6C)C1=O)c(CC)c5C)C(C(C)OCCC)=C4C)[C@@H](C)[C@@H]3CCC(=O)OC (some centres not stated)
reportedResult: 10.83

These measurements were taken from ChEMBL document CHEMBL1134470.
